Species: Rattus norvegicus
Test: Open TG-GATES - Regimen: Daily Repeat
Format: toxicity, organism-based, Sprague-Dawley
Design: regimen Daily Repeat, gender Male, age 6 weeks
Settings: in vivo, po, 100 mg/kg, […], tissue Blood, route gavage, dose level Low, time 28 day
EXPERIMENTAL ENDPOINT: Ret (%)
Lab book: enter the figure in %, no units written.

In [3]: df
Out[3]:
                                   compound  data_value
0    CC(S)C(=O)NCC(=O)O (centres undefined)         2.8
1  CC(=O)[C@@]1(O)CC[C@H]2[C@@H]3C=C(Cl)C4=CC(=O)CC[C@]4(C)[C@H]3CC[C@@]21C         2.2
2                   O=C(O)c1ccccc1Nc1ccccc1         2.6

Exercise: Reported Ret for CCCCNC(=O)NS(=O)(=O)c1ccc(C)cc1 [TOLBUTAMIDE] : what is it?
Key: 2.4

====

Species: Rattus norvegicus
Experiment: Open TG-GATES - Regimen: Daily Repeat
Format: toxicity, organism-based, Sprague-Dawley
Set-up: regimen Daily Repeat, gender Male, age 6 weeks
Conditions: in vivo, po, 300 mg/kg, […], tissue Blood, route gavage, dose level Middle, time 28 day
EXPERIMENTAL ENDPOINT: Plat (x10_4/uL)
Lab book: enter the figure in x10_4/uL, no units written.

>>> df
                                   molecule  experimental_endpoint  data_value
0  CC(=O)[C@@]1(O)CC[C@H]2[C@@H]3C=C(Cl)C4=CC(=O)CC[C@]4(C)[C@H]3CC[C@@]21C                   Plat        92.9

Exercise: Reported Plat for `O=C(O)c1ccccc1Nc1ccccc1` : what is it?
Key: 119.3

Exercise: Reported Plat for CC(S)C(=O)NCC(=O)O (centres undefined) : what is it?
Key: 95.9

Exercise: Reported Plat for CCCCNC(=O)NS(=O)(=O)c1ccc(C)cc1 [TOLBUTAMIDE] : what is it?
Key: 102.9

====

Species on record: Rattus norvegicus
Test: Open TG-GATES - Regimen: Daily Repeat
Type: toxicity, organism-based, Sprague-Dawley
Parameters: regimen Daily Repeat, gender Male, age 6 weeks
Details: in vivo, po, 100 mg/kg, […], tissue Plasma, route gavage, dose level Low, time 7 day
EXPERIMENTAL ENDPOINT: Ca (mg/dL)
Lab book: enter the figure in mg/dL, no units written.

Exercise: Reported Ca for `CC(=O)[C@@]1(O)CC[C@H]2[C@@H]3C=C(Cl)C4=CC(=O)CC[C@]4(C)[C@H]3CC[C@@]21C` : what is it?
Key: 10.7

Exercise: Reported Ca for CCCCNC(=O)NS(=O)(=O)c1ccc(C)cc1 [TOLBUTAMIDE] : what is it?
Key: 10.9

Exercise: Reported Ca for CC(S)C(=O)NCC(=O)O (centres undefined) : what is it?
Key: 10.6

Exercise: Reported Ca for `O=C(O)c1ccccc1Nc1ccccc1` : what is it?
Key: 11.4

====

Species: Rattus norvegicus
Assay: Open TG-GATES - Regimen: Single
Type: toxicity, organism-based, Sprague-Dawley
Set-up: regimen Single, gender Male, age 6 weeks
Conditions: in vivo, po, 0 mg/kg, 3 h, tissue Plasma, route gavage, dose level Control
Measured RALB of individual entries
Lab book: enter the figure in g/dL, no units written.

Sample records with RALB:
                                   compound  data_value
0  CN(CCOc1ccc(CC2SC(=O)NC2=O)cc1)c1ccccn1.O=C(O)/C=C\C(=O)O (stereo unspecified) [ROSIGLITAZONE MALEATE]         3.7
1                                       CCO         3.9
2          CN(C)CCCN1c2ccccc2Sc2ccc(Cl)cc21         3.5
3  COc1cc2ncnc(Nc3ccc(F)c(Cl)c3)c2cc1OCCCN1CCOCC1         3.9
4                          O=c1ccc2ccccc2o1           4

Consider the record given below.
Exercise: Reported RALB for `O=C(O)c1ccccc1Nc1ccccc1` : what is it?
Key: 2.5

====

Species: Rattus norvegicus
Test: Open TG-GATES - Regimen: Daily Repeat
Format: toxicity, organism-based, Sprague-Dawley
Design: regimen Daily Repeat, gender Male, age 6 weeks
Details: in vivo, po, 1000 mg/kg, 72 h, tissue Blood, route gavage, dose level High, time 3 day
EXPERIMENTAL ENDPOINT: RBC (x10_4/ul)
Lab book: enter the figure in x10_4/ul, no units written.

Exercise: Reported RBC for CCCCNC(=O)NS(=O)(=O)c1ccc(C)cc1 [TOLBUTAMIDE] : what is it?
Key: 647.4

Exercise: Reported RBC for CC(S)C(=O)NCC(=O)O (centres undefined) : what is it?
Key: 626.6

Exercise: Reported RBC for `O=C(O)c1ccccc1Nc1ccccc1` : what is it?
Key: 650

Exercise: Reported RBC for `CC(=O)[C@@]1(O)CC[C@H]2[C@@H]3C=C(Cl)C4=CC(=O)CC[C@]4(C)[C@H]3CC[C@@]21C` : what is it?
Key: 690

====

Species: Rattus norvegicus
Test: Open TG-GATES - Regimen: Daily Repeat
Assay type: toxicity, organism-based, Sprague-Dawley
Design: regimen Daily Repeat, gender Male, age 6 weeks
Details: in vivo, po, 0 mg/kg, […], tissue Kidney, route gavage, dose level Control, time 7 day
EXPERIMENTAL ENDPOINT: KIDNEY_R (g)
Lab book: enter the figure in g, no units written.

Sample records with KIDNEY_R:
>>> df
                                   compound  measure_unit  data_value
0                   Nc1ccc(Cc2ccc(N)cc2)cc1             g         1.1
1                          O=c1ccc2ccccc2o1             g           1
2                                       CCO             g         1.2
3  CCCCNC(=O)NS(=O)(=O)c1ccc(C)cc1 [TOLBUTAMIDE]             g         1.1
4  COc1ccc([C@@H]2Sc3ccccc3N(CCN(C)C)C(=O)[C@@H]2OC(C)=O)cc1             g           1

Consider the record given below.
Exercise: Reported KIDNEY_R for `CN(C/C=C/C#CC(C)(C)C)Cc1cccc2ccccc12` : what is it?
Key: 1.2

====

Organism: Rattus norvegicus
Assay: Open TG-GATES - Regimen: Single
Type: toxicity, organism-based, Sprague-Dawley
Design: regimen Single, gender Male, age 6 weeks
Conditions: in vivo, po, 0 mg/kg, 3 h, tissue Blood, route gavage, dose level Control
Measured Eos of individual entries
Lab book: enter the figure in %, no units written.

Sample records with Eos:
                                   molecule  experimental_endpoint  data_value
0          CN(C)CCCN1c2ccccc2Sc2ccc(Cl)cc21                    Eos         1.2
1  COc1ccc([C@@H]2Sc3ccccc3N(CCN(C)C)C(=O)[C@@H]2OC(C)=O)cc1                    Eos         0.8
2                   Nc1ccc(Cc2ccc(N)cc2)cc1                    Eos         0.6

Exercise: Reported Eos for `O=c1ccc2ccccc2o1` : what is it?
Key: 0.6

Exercise: Reported Eos for NS(=O)(=O)c1cc(C(=O)O)c(NCc2ccco2)cc1Cl [FUROSEMIDE] : what is it?
Key: 0.8

Exercise: Reported Eos for CCCCNC(=O)NS(=O)(=O)c1ccc(C)cc1 [TOLBUTAMIDE] : what is it?
Key: 0.8

Exercise: Reported Eos for `O=C(O)c1ccccc1Nc1ccccc1` : what is it?
Key: 1

Exercise: Reported Eos for CC(S)C(=O)NCC(=O)O (stereo unspecified) : what is it?
Key: 0.8

====

Measured GLC of individual entries
Species on record: Rattus norvegicus
Experiment: Open TG-GATES - Regimen: Single
Format: toxicity, organism-based, Sprague-Dawley
Parameters: regimen Single, gender Male, age 6 weeks
Details: in vivo, po, 0 mg/kg, 24 h, tissue Plasma, route gavage, dose level Control
Lab book: enter the figure in mg/dL, no units written.

In [3]: df
Out[3]:
                                   compound  measure_unit  data_value
0                CCN(CC)C(=S)SSC(=S)N(CC)CC         mg/dL       193.4
1  CN(CCOc1ccc(CC2SC(=O)NC2=O)cc1)c1ccccn1.O=C(O)/C=C\C(=O)O (stereo not drawn) [ROSIGLITAZONE MALEATE]         mg/dL       188.4
2  CC(=O)[C@@]1(O)CC[C@H]2[C@@H]3C=C(Cl)C4=CC(=O)CC[C@]4(C)[C@H]3CC[C@@]21C         mg/dL       197.8
3  COc1ccc([C@@H]2Sc3ccccc3N(CCN(C)C)C(=O)[C@@H]2OC(C)=O)cc1         mg/dL       187.4
4      CN(C/C=C/C#CC(C)(C)C)Cc1cccc2ccccc12         mg/dL       196.8
5                                       CCO         mg/dL       194.4
6                          O=c1ccc2ccccc2o1         mg/dL       184.4
7  CCCCNC(=O)NS(=O)(=O)c1ccc(C)cc1 [TOLBUTAMIDE]         mg/dL       171.2
8          CN(C)CCCN1c2ccccc2Sc2ccc(Cl)cc21         mg/dL         203
9                   Nc1ccc(Cc2ccc(N)cc2)cc1         mg/dL         167

Exercise: Reported GLC for NS(=O)(=O)c1cc(C(=O)O)c(NCc2ccco2)cc1Cl [FUROSEMIDE] : what is it?
Key: 182.4

Exercise: Reported GLC for `O=C(O)c1ccccc1Nc1ccccc1` : what is it?
Key: 177.2

Exercise: Reported GLC for CC(S)C(=O)NCC(=O)O (stereo not drawn) : what is it?
Key: 196.4

Hey, just so you know, these numbers are from ChEMBL document CHEMBL3885861.
